meta.source: patent US7700590B2

# Test system: Staphylococcus aureus 29213
# experiment notes: Antibacterial growth inhibition assay (serial dilution, colorimeter at 600 nm), S. aureus 29213
# Type: cell-based
# measurement parameters: 50% growth inhibition; methicillin susceptible strain; serial dilution 238-0.46 μg/ml
reported endpoint: MIC, concentration at 50% inhibition of bacteria growth, S. aureus 29213 (µg/mL)

> print(dat)
                                  structure                          tgt  measurement
1  CN1CC[C@@H](CN(Cc2ccccc2)Cc2ccc([N+](=O)[O-])cc2)OC1=O  Staphylococcus aureus 29213         81.0

a. CCN1CC[C@@H](CN(Cc2ccccc2)Cc2cccc(OC)c2)OC1=O
b. CCN1CC[C@@H](CN(Cc2ccccc2)Cc2ccc(C#N)cc2)OC1=O
c. CCN1CC[C@@H](CN(Cc2ccccc2)Cc2ccc(F)cc2F)OC1=O
Let's sort these by MIC, concentration at 50% inhibition of bacteria growth, S. aureus 29213, smallest first. Go ahead? Response format: the labels, sorted as the prompt asks.
c, a, b

---

# Test system: Gram positive bacteria, including S. aureus, E. faecalis and B. subtilis
# experiment notes: Antibacterial activity, statements not tied to one strain
# Format: cell-based
# measurement parameters: strain not singled out
reported endpoint: antibacterial activity in words

> print(dat)
                                   compound                                       tgt                reported.endpoint             measurement
1  CCN1CC[C@@H](CN(Cc2ccccc2)Cc2cccc3ccccc23)OC1=O [Compound A13]  Gram positive bacteria, including S. aureus, E. faecalis and B. subtilis  antibacterial activity in words             most potent
2  CN1CC[C@@H](CN(Cc2ccccc2)Cc2ccc3ccccc3c2)OC1=O [Compound B9]  Gram positive bacteria, including S. aureus, E. faecalis and B. subtilis  antibacterial activity in words             most potent
3  CCN1CC[C@@H](CN(Cc2ccccc2)Cc2ccccc2C)OC1=O [Compound A17]  Gram positive bacteria, including S. aureus, E. faecalis and B. subtilis  antibacterial activity in words             most potent
4  CCN1CC[C@@H](CN(Cc2ccccc2)Cc2ccccn2)OC1=O [Compound A15]  Gram positive bacteria, including S. aureus, E. faecalis and B. subtilis  antibacterial activity in words  decreased or nullified

# antibacterial activity in words of CCN1CC[C@@H](CN(Cc2ccccc2)Cc2ccc(Cl)c(Cl)c2)OC1=O [Compound A11] = most potent

// field: antibacterial activity in words; key: CCN1CC[C@@H](CN(Cc2ccccc2)Cc2cccnc2)OC1=O [Compound A14] ; value = decreased or nullified

---

# Test system: Staphylococcus aureus 29213
# experiment notes: Antibacterial growth inhibition assay (serial dilution, colorimeter at 600 nm), S. aureus 29213
# Assay type: cell-based
# Parameters: key: N stands for no inhibition
# measurement parameters: 50% growth inhibition; methicillin susceptible strain; serial dilution 238-0.46 μg/ml
reported endpoint: MIC, concentration at 50% inhibition of bacteria growth, S. aureus 29213

> print(dat)
                                   compound  measurement
1  CCN1CC[C@@H](CN(Cc2ccccc2)Cc2cccnc2)OC1=O [Compound A14]            N
2  CCN1CC[C@@H](CN(Cc2ccccc2)Cc2ccccn2)OC1=O [Compound A15]            N
3  CCN1CC[C@@H](CN(Cc2ccccc2)Cc2ccc([N+](=O)[O-])cc2)OC1=O [Compound A1]            N
